assay_target: T1, low-density lipoprotein receptor-related protein (LRP), purified (human, UniProt Q07954 20-4544)
T1 construct: mature; also called low density lipoprotein receptor-related protein/α2-macroglobulin receptor; LRP receptor
T1 sequence (Q07954 20-4544, form in doubt): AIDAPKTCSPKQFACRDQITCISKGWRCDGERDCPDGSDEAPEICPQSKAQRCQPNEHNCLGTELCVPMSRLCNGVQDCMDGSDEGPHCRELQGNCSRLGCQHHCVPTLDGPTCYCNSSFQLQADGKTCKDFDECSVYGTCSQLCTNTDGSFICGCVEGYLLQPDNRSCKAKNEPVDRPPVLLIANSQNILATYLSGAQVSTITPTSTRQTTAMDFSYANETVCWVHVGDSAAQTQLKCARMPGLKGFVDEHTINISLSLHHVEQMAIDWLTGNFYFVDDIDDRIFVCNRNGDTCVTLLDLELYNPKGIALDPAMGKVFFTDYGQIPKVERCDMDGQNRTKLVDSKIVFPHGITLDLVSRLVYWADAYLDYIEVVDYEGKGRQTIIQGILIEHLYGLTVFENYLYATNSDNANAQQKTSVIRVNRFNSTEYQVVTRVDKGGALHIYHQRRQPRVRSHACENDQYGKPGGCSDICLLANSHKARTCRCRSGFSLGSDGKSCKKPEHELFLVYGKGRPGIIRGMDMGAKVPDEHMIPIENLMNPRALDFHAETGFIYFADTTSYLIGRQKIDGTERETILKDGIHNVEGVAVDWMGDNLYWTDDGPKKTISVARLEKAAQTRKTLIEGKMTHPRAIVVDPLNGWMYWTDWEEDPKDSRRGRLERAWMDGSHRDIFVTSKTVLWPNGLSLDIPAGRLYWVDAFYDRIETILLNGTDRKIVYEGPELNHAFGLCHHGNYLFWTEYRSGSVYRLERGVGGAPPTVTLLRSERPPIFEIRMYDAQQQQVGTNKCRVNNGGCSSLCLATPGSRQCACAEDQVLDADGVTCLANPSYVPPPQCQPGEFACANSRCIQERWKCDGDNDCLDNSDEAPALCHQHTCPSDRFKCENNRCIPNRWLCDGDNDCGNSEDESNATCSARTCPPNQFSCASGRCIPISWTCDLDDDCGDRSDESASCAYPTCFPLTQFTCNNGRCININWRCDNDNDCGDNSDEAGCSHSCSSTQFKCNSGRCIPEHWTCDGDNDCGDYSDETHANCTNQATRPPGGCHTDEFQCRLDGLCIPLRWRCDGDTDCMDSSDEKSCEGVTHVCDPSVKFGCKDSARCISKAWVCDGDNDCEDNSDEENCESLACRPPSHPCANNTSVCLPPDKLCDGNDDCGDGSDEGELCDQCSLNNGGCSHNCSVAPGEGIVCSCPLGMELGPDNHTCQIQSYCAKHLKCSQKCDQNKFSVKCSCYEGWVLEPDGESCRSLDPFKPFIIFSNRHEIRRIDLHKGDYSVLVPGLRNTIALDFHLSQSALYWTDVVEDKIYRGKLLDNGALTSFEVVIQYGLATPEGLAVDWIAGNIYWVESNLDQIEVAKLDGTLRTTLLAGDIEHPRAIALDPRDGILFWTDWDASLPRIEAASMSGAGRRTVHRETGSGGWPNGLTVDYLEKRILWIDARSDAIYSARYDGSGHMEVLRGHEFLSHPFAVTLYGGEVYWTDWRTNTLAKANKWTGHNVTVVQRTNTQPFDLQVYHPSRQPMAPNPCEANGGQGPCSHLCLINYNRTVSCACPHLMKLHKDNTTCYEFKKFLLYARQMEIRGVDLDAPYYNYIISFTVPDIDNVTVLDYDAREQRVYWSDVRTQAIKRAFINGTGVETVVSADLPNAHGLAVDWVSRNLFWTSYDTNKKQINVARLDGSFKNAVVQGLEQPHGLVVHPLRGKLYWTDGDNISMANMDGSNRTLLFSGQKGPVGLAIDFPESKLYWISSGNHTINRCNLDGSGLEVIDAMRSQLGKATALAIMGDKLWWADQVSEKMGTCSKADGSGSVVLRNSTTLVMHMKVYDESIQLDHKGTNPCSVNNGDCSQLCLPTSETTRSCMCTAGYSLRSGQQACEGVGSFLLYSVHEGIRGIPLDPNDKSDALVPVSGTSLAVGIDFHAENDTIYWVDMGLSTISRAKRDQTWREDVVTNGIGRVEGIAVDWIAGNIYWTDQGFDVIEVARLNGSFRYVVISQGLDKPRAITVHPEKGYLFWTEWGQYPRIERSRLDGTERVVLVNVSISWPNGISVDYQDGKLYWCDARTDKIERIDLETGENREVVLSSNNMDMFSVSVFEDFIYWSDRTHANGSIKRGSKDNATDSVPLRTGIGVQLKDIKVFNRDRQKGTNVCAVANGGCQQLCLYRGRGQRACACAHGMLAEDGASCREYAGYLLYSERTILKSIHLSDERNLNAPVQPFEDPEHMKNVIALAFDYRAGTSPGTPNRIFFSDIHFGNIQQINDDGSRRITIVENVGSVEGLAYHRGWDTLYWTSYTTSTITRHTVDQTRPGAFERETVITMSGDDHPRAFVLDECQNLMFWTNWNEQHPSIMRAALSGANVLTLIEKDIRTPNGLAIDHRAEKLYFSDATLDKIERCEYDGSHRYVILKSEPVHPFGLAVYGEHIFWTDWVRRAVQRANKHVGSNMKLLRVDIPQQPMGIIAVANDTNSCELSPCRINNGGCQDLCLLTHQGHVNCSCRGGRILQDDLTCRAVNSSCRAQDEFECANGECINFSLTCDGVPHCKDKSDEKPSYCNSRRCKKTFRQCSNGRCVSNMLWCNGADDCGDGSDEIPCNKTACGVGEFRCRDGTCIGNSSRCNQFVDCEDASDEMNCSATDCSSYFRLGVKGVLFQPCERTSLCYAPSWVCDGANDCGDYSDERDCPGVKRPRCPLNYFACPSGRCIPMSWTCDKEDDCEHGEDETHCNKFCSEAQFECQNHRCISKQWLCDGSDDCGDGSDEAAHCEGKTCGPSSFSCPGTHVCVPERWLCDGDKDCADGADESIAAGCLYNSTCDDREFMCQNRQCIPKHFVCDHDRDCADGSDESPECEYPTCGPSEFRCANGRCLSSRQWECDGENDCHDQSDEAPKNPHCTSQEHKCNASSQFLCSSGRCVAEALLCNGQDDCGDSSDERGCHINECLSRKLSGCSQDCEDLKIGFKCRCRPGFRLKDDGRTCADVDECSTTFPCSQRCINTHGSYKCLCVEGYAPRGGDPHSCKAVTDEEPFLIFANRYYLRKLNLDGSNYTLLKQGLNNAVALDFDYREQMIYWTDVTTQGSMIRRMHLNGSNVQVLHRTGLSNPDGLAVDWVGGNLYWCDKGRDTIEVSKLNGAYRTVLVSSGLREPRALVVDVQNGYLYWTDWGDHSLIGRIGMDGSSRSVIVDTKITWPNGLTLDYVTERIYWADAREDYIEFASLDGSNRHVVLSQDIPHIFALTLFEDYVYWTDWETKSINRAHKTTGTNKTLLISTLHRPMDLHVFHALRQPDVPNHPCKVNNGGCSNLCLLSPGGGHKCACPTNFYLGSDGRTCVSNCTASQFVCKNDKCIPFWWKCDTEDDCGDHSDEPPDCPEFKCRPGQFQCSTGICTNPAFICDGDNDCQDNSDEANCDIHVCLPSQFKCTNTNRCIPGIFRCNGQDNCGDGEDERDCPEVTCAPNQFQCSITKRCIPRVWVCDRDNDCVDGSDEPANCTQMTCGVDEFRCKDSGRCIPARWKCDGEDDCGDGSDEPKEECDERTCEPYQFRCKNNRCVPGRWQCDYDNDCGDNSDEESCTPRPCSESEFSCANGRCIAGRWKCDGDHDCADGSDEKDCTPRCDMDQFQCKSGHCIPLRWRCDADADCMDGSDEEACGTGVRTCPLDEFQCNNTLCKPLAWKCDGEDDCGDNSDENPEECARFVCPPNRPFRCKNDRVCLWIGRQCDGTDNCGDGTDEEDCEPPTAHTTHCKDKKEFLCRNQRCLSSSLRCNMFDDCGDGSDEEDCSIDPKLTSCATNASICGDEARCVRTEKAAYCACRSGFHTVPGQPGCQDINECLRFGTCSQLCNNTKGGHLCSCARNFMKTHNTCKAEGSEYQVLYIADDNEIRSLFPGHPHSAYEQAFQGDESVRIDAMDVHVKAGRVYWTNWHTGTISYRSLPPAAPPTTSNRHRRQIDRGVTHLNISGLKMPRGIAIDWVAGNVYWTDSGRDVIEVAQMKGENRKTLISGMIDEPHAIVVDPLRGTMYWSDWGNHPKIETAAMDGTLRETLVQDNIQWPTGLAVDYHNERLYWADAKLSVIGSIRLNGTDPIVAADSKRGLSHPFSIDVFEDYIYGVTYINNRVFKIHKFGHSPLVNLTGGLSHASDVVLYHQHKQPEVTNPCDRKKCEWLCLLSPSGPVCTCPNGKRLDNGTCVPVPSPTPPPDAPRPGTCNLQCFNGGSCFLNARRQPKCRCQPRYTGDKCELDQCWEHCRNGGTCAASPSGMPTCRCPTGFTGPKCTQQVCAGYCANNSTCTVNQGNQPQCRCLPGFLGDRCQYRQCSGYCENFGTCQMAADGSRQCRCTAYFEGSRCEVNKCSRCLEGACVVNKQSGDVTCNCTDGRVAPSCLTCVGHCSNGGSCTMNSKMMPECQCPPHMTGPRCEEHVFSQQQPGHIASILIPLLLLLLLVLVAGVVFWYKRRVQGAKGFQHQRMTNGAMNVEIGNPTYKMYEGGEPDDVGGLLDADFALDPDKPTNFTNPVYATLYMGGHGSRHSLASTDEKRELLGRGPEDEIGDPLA
assay_summary: SPR, BIAcore 3000, one-site model, KD = koff/kon
pKd: −log10 of the molar value.
measured_endpoint: pKd

{"binder": "recombinant A2 mutant #9 (Ser-488 to Ala) (other, hx-A2 form from Sf9 cells) SGAKKHPKTWVHYIAAEEEDWDYAPLVLAPDDRSYKSQYLNNGPQRIGRKYKKVRFMAYTDETFKTREAIQHESGILGPLLYGEVGDTLLIIFKNQASRPYNIYPHGITDVRPLYARRLPKGVKHLKDFPILPGEIFKYKWTVTVEDGPTKSDPRCLTRYYSSFVNMERDLASGLIGPLLICYKESVDQRGNQIMSDKRNVILFSVFDENRSWYLTENIQRFLPNPAGVQLEDPEFQASNIMHSINGYVFDSLQLSVCLHEVAYWYILSIGAQTDFLSVFFSGYTFKHKMVYEDTLTLFPFSGETVFMSMENPGLWILGCHNSDFRNRGMTALLKVSSCDKNTGDYYEDSYEDISAYLLSKNNAIEPR", "meas_value": 7.17}
{"binder": "recombinant A2 mutant #20 (Lys-556 to Ala) (other, hx-A2 form from Sf9 cells; not shown: N-terminal hx leader (6xHis tag, vector-derived linker, factor Xa site)) SGAKKHPKTWVHYIAAEEEDWDYAPLVLAPDDRSYKSQYLNNGPQRIGRKYKKVRFMAYTDETFKTREAIQHESGILGPLLYGEVGDTLLIIFKNQASRPYNIYPHGITDVRPLYSRRLPKGVKHLKDFPILPGEIFKYKWTVTVEDGPTKSDPRCLTRYYSSFVNMERDLASGLIGPLLICYAESVDQRGNQIMSDKRNVILFSVFDENRSWYLTENIQRFLPNPAGVQLEDPEFQASNIMHSINGYVFDSLQLSVCLHEVAYWYILSIGAQTDFLSVFFSGYTFKHKMVYEDTLTLFPFSGETVFMSMENPGLWILGCHNSDFRNRGMTALLKVSSCDKNTGDYYEDSYEDISAYLLSKNNAIEPR", "meas_value": 7.48}
{"binder": "recombinant A2 mutant #11 (Arg-490 to Ala) (other, hx-A2 form from Sf9 cells) SGAKKHPKTWVHYIAAEEEDWDYAPLVLAPDDRSYKSQYLNNGPQRIGRKYKKVRFMAYTDETFKTREAIQHESGILGPLLYGEVGDTLLIIFKNQASRPYNIYPHGITDVRPLYSRALPKGVKHLKDFPILPGEIFKYKWTVTVEDGPTKSDPRCLTRYYSSFVNMERDLASGLIGPLLICYKESVDQRGNQIMSDKRNVILFSVFDENRSWYLTENIQRFLPNPAGVQLEDPEFQASNIMHSINGYVFDSLQLSVCLHEVAYWYILSIGAQTDFLSVFFSGYTFKHKMVYEDTLTLFPFSGETVFMSMENPGLWILGCHNSDFRNRGMTALLKVSSCDKNTGDYYEDSYEDISAYLLSKNNAIEPR", "meas_value": 7.23}
